These measurements were taken from patent US10604528B2.

Test: Kinetic solubility in FaSSIF, FeSSIF and water (HPLC)
Format: physicochemical
Conditions: FaSSIF and water, pH 6.5, fassif, thermodynamic from solid, in both FaSSIF and H2O, all sampling points; read-out: solubility
Method: Form A of the present disclosure and Form 1 of the prior art were suspended into FaSSIF (Fasted state simulated intestinal fluids, pH=6.5), FeSSIF (Fed state simulated intestinal fluids, pH=5.0), SGF (Simulated gastric fluids, pH=1.8) and water to get saturated solutions. After equilibrated for 1 h, 4 h and 24 h, concentrations of the saturated solutions were measured by HPLC.
ENDPOINT: solubility

Cc1cccc(-c2nn3c(c2-c2ccnc4ccc(C(N)=O)cc24)CCC3)n1 [Form 1, reference compound]	< 60 µg/mL
